Attribution: patent US8691982B2

The reader will find pIC50 measurements below, all made with DYRK1A (Homo sapiens, UniProt Q13627).
pIC50: −log10 of the molar value.
endpoint_name: pIC50

Examples from the recorded data:
> print(dat)
                                   molecule  endpoint.name  measured.result
1  CC[C@H](CO)Nc1nc(NCc2ccc(-c3ccccn3)cc2)n2ncc(C(C)C)c2n1          pIC50             5.66
2  CC[C@H](CO)Nc1nc(NCc2ccc(-c3ccccc3)cc2)n2ncc(C(C)C)c2n1          pIC50             5.66
3  CC(C)c1cnn2c(NCc3ccc(-c4ccccn4)cc3)nc(N[C@H](CO)[C@@H](C)O)nc12 (stereo in doubt)          pIC50             6.33
4  CC[C@H](CO)Nc1nc(NCc2ccccc2)n2ncc(C(C)C)c2n1 [N-&-N1, reference compound]          pIC50             5.89

(I) CC(C)c1cnn2c(NCc3ccc(-c4ccccn4)cc3)nc(NC(CO)CO)nc12
(II) CC(C)c1cnn2c(NCc3ccc(-c4ccccn4)cc3)nc(N[C@H](CO)C(C)C)nc12
(III) CC(C)c1cnn2c(NCc3ccc(-c4ccccn4)cc3)nc(NC[C@H](O)CO)nc12
(IV) CC(C)c1cnn2c(NCc3ccc(-c4ccsc4)cc3)nc(N[C@H](CO)[C@@H](C)O)nc12 (stereo in doubt)
## Task Sort these molecules on pIC50 so the largest reading comes first. API: response body holds the labels in the requested order.
## Result III, II, I, IV
